Values compiled from patent US8734673B2.

# Assay Summary: Solvation interaction parameters by inverse gas-liquid chromatography (Abraham model)
# Assay type: physicochemical
# Test Parameters: 70° C.
In this section we review reported Interaction parameter a (hydrogen bond basicity) values for a set of molecules.
API doc: respond with a numeric literal and nothing else, no unit.

Recorded results for 4 molecules are shown here.
molecule="C[N+]1(CCCCCCCCC[N+]2(C)CCCC2)CCCC1.O=S(=O)([N-]S(=O)(=O)C(F)(F)F)C(F)(F)F.O=S(=O)([N-]S(=O)(=O)C(F)(F)F)C(F)(F)F [C9(mpy)2-NTf2]" observed_result=1.65
molecule="C[n+]1ccn(CCCCn2cc[n+](C)c2)c1.O=S(=O)([N-]S(=O)(=O)C(F)(F)F)C(F)(F)F.O=S(=O)([N-]S(=O)(=O)C(F)(F)F)C(F)(F)F [C4(mim)2-NTf2]" observed_result=1.77
molecule="Cn1cc[n+](CCCCCCCCC[n+]2ccn(C)c2)c1.O=S(=O)([N-]S(=O)(=O)C(F)(F)F)C(F)(F)F.O=S(=O)([N-]S(=O)(=O)C(F)(F)F)C(F)(F)F [C9(mim)2-NTf2]" observed_result=1.75
molecule="O=S(=O)([N-]S(=O)(=O)C(F)(F)F)C(F)(F)F.O=S(=O)([N-]S(=O)(=O)C(F)(F)F)C(F)(F)F.c1ccc(Cn2cc[n+](CCCCCCCCCCCC[n+]3ccn(Cc4ccccc4)c3)c2)cc1 [C12(benzim)2-NTf2]" observed_result=1.75

For the molecule CCCCn1cc[n+](C)c1.O=S(=O)([N-]S(=O)(=O)C(F)(F)F)C(F)(F)F [BMIM-NTf2, reference compound] , what Interaction parameter a (hydrogen bond basicity) is on record? 1.75
